Tested on: Pseudomonas aeruginosa
Test: MIC, compound in combination with a second agent (broth microdilution)
Format: cell-based
Details: 1:1 (wt:wt) combination with Rifampicin; MIC = total drug concentration; strain CCUG 59626
Experimental: To evaluate the potency and spectrum of the compounds both alone and in combination with another agent, susceptibility testing was performed against up to four strains of each of the four Gram negative pathogens, Escherichia coli, Pseudomonas aeruginosa, Klebsiella pneumoniae and Acinetobacter baumannii. Ratios of components in a combination, such as 1:1, refers to a weight to weight ratio. […]
Structures can show the parent of a compound that is named as a salt. Numbered stars: 1 amine (or outer) side, 2 acyl side, 3 side chain; on linkers, the order of the positions; unused ones are H or OH. Bridge positions count the residues as written; N and C are the ends. Square brackets hold non-standard residues; d marks the D form. Peptide text beside a SMILES is read from it. * marks the point of attachment. ξ: configuration not given here. Acetyl(2-(piperazin-1-yl)) = O=C(CN1CCNCC1)*; GABA(4S-Me) = C[C@@H](CCC(=O)[*:2])N[*:1]; ξβ3hGly(cHex) = NC(CC(=O)*)C1CCCCC1; X17 = CN1CCN(c2ccc(C(=O)*)cc2)CC1; Thr(3ξ) = CC(O)[C@H](N)C(=O)O; Dab = NCC[C@H](N)C(=O)O
ASSAY_METRIC: MIC P. aeruginosa CCUG 59626 (micrograms/mL)
Write the answer as a number in micrograms/mL, unit excluded.

Recorded MIC P. aeruginosa CCUG 59626, per entry:
[
  {
    "COMPOUND": "CC(C)C[C@@H]1NC(=O)[C@@H](Cc2ccccc2)NC(=O)[C@H](CCN)NC(=O)[C@@H](NC(=O)[C@H](CCN)NC(=O)[C@@H](NC(=O)CC[C@H](C)N)C(C)O)CCNC(=O)[C@H](C(C)O)NC(=O)[C@H](CCN)NC(=O)[C@H](CCN)NC1=O (stereo partly drawn) [Example 24] ({GABA(4S-Me)}-[Thr(3ξ)][Dab][Dab][Dab][dF]L[Dab][Dab][Thr(3ξ)]; lactam 3-C)",
    "MIC P. aeruginosa CCUG 59626, micrograms/mL": 0.25
  },
  {
    "COMPOUND": "CC(C)C[C@@H]1NC(=O)[C@@H](Cc2ccccc2)NC(=O)[C@H](CCN)NC(=O)[C@@H](NC(=O)[C@H](CCN)NC(=O)[C@@H](NC(=O)CN2CCNCC2)C(C)O)CCNC(=O)[C@H](C(C)O)NC(=O)[C@H](CCN)NC(=O)[C@H](CCN)NC1=O (stereo partly drawn) [Example 52, trifluoroacetate salt] ({Acetyl(2-(piperazin-1-yl))}-[Thr(3ξ)][Dab][Dab][Dab][dF]L[Dab][Dab][Thr(3ξ)]; lactam 3-C)",
    "MIC P. aeruginosa CCUG 59626, micrograms/mL": 0.125
  },
  {
    "COMPOUND": "CC(C)C[C@@H]1NC(=O)[C@@H](Cc2ccccc2)NC(=O)[C@H](CCN)NC(=O)[C@@H](NC(=O)[C@H](CCN)NC(=O)[C@@H](NC(=O)c2ccc(N3CCN(C)CC3)cc2)C(C)O)CCNC(=O)[C@H](C(C)O)NC(=O)[C@H](CCN)NC(=O)[C@H](CCN)NC1=O (stereo partly drawn) [Example 55] (X17-[Thr(3ξ)][Dab][Dab][Dab][dF]L[Dab][Dab][Thr(3ξ)]; lactam 3-C)",
    "MIC P. aeruginosa CCUG 59626, micrograms/mL": 0.25
  }
]

The compound identified as CC(C)C[C@@H]1NC(=O)[C@@H](Cc2ccccc2)NC(=O)[C@H](CCN)NC(=O)[C@@H](NC(=O)[C@H](CCN)NC(=O)[C@@H](NC(=O)C(O)C2CCCCC2)C(C)O)CCNC(=O)[C@H](C(C)O)NC(=O)[C@H](CCN)NC(=O)[C@H](CCN)NC1=O (mixture of isomers) registered its MIC P. aeruginosa CCUG 59626 at 0.5

The compound identified as CC(C)C[C@H]1NC(=O)[C@H](CCN)NC(=O)[C@@H](NC(=O)[C@H](CCN)NC(=O)[C@@H](NC(=O)CC(N)C2CCCCC2)C(C)O)CCNC(=O)[C@H](C(C)O)NC(=O)[C@H](CCN)NC(=O)[C@H](CCN)NC(=O)[C@H](C(C)O)NC1=O (stereo partly drawn) [Example 50] ({ξβ3hGly(cHex)}-[Thr(3ξ)][Dab][Dab][Dab][dL][Thr(3ξ)][Dab][Dab][Thr(3ξ)]; lactam 3-C) registered its MIC P. aeruginosa CCUG 59626 at 0.25

The compound identified as CC(C)C[C@@H]1NC(=O)[C@@H](Cc2ccccc2)NC(=O)[C@H](CCN)NC(=O)[C@@H](NC(=O)[C@H](CCN)NC(=O)[C@@H](NC(=O)CC(N)C2CCCCC2)C(C)O)CCNC(=O)[C@H](C(C)O)NC(=O)[C@H](CCN)NC(=O)[C@H](CCN)NC1=O (stereo partly drawn) [Example 10] ({ξβ3hGly(cHex)}-[Thr(3ξ)][Dab][Dab][Dab][dF]L[Dab][Dab][Thr(3ξ)]; lactam 3-C) registered its MIC P. aeruginosa CCUG 59626 at 0.25
